# experimentalSystem: CYP2C9 (Homo sapiens)
# Construct: Eurofins Panlabs, Inc. (contract laboratory)
# experimentNotes: Cytochrome P450 inhibition assay, CYP2C9
# Assay type: in vitro ADME
# appliedConditions: 1.0E-05 M
testReadout: inhibition at 10 µM (%)
The answer is to be given in %; state only the numeric part.

Q) Please give the measured inhibition at 10 µM for this compound: `O=C(N[C@H]1CC[C@@]2(O)[C@H]3Cc4ccc(O)c5c4[C@@]2(CCN3CC2CC2)[C@H]1O5)c1nccs1`
A) 16.3

* * *

# collection of Ki values tested on μ opioid receptor (MOR) (Mus musculus, UniProt P42866)
The answer is to be given in nM; state only the numeric part.

Answered examples (8):
INSERT INTO results (compound, testreadout, reported) VALUES
  ('O=C(Cc1cncs1)N[C@H]1CC[C@@]2(O)[C@H]3Cc4ccc(O)c5c4[C@@]2(CCN3CC2CC2)[C@H]1O5 [Compound 4]', 'Ki', 0.57),
  ('O=C(Cc1ccns1)N[C@H]1CC[C@@]2(O)[C@H]3Cc4ccc(O)c5c4[C@@]2(CCN3CC2CC2)[C@H]1O5 [Compound 2]', 'Ki', 0.55),
  ('O=C(N[C@H]1CC[C@@]2(O)[C@H]3Cc4ccc(O)c5c4[C@@]2(CCN3CC2CC2)[C@H]1O5)c1cncs1 [Compound 3]', 'Ki', 0.35),
  ('O=C(N[C@@H]1CC[C@@]2(O)[C@H]3Cc4ccc(O)c5c4[C@@]2(CCN3CC2CC2)[C@H]1O5)c1cncs1 [Compound 11]', 'Ki', 0.53),
  ('O=C(CCc1nccs1)N[C@@H]1CC[C@@]2(O)[C@H]3Cc4ccc(O)c5c4[C@@]2(CCN3CC2CC2)[C@H]1O5 [Compound 16]', 'Ki', 0.35),
  ('O=C(N[C@@H]1CC[C@@]2(O)[C@H]3Cc4ccc(O)c5c4[C@@]2(CCN3CC2CC2)[C@H]1O5)c1ccns1 [Compound 9]', 'Ki', 0.32),
  ('O=C(CCc1nccs1)N[C@H]1CC[C@@]2(O)[C@H]3Cc4ccc(O)c5c4[C@@]2(CCN3CC2CC2)[C@H]1O5 [Compound 8]', 'Ki', 0.45),
  ('O=C(CCc1cncs1)N[C@@H]1CC[C@@]2(O)[C@H]3Cc4ccc(O)c5c4[C@@]2(CCN3CC2CC2)[C@H]1O5 [Compound 13]', 'Ki', 0.49);

Q) Please give the measured Ki for this compound: O=C(Cc1ccns1)N[C@@H]1CC[C@@]2(O)[C@H]3Cc4ccc(O)c5c4[C@@]2(CCN3CC2CC2)[C@H]1O5 [Compound 10]
A) 0.59

Q) Please give the measured Ki for this compound: O=C(N[C@H]1CC[C@@]2(O)[C@H]3Cc4ccc(O)c5c4[C@@]2(CCN3CC2CC2)[C@H]1O5)c1ccns1 [Compound 1]
A) 0.51

Q) Please give the measured Ki for this compound: O=C(Cc1nccs1)N[C@H]1CC[C@@]2(O)[C@H]3Cc4ccc(O)c5c4[C@@]2(CCN3CC2CC2)[C@H]1O5 [Compound 7]
A) 0.65

Q) Please give the measured Ki for this compound: O=C(Cc1nccs1)N[C@@H]1CC[C@@]2(O)[C@H]3Cc4ccc(O)c5c4[C@@]2(CCN3CC2CC2)[C@H]1O5 [Compound 15]
A) 0.35

Q) Please give the measured Ki for this compound: O=C(N[C@@H]1CC[C@@]2(O)[C@H]3Cc4ccc(O)c5c4[C@@]2(CCN3CC2CC2)[C@H]1O5)c1nccs1 [Compound 14]
A) 0.3

Q) Please give the measured Ki for this compound: O=C(CCc1cncs1)N[C@H]1CC[C@@]2(O)[C@H]3Cc4ccc(O)c5c4[C@@]2(CCN3CC2CC2)[C@H]1O5 [Compound 5]
A) 0.71

Q) Please give the measured Ki for this compound: O=C(Cc1cncs1)N[C@@H]1CC[C@@]2(O)[C@H]3Cc4ccc(O)c5c4[C@@]2(CCN3CC2CC2)[C@H]1O5 [Compound 12]
A) 0.39

Q) Please give the measured Ki for this compound: O=C(N[C@H]1CC[C@@]2(O)[C@H]3Cc4ccc(O)c5c4[C@@]2(CCN3CC2CC2)[C@H]1O5)c1nccs1 [Compound 6]
A) 0.25

* * *

# experimentalSystem: hERG potassium channel (Homo sapiens)
# experimentNotes: hERG inhibitory activity assay (automated patch-clamp, CHO-K1 cells)
# appliedConditions: human, CHO-K1 cells stably expressing hERG
testReadout: inhibition at 1 µM (%)
The answer is to be given in %; state only the numeric part.

Q) Please give the measured inhibition at 1 µM for this compound: `O=C(N[C@H]1CC[C@@]2(O)[C@H]3Cc4ccc(O)c5c4[C@@]2(CCN3CC2CC2)[C@H]1O5)c1nccs1`
A) 18.5

* * *

# experimentNotes: In vitro metabolic stability in human liver microsomes
# Assay type: in vitro ADME
# appliedConditions: 1.0E-07 M
# Protocol: The ADMET assessment including the hERG inhibitory activity, plasma protein binding, in vitro metabolic stability profile, CYP inhibitory effect and mutagenic evaluation were conducted by Eurofins Panlabs, Inc.[21],[61],[69]−[71]
testReadout: microsomal CLint at 100 nM

Q) Please give the measured microsomal CLint at 100 nM for this compound: `O=C(N[C@H]1CC[C@@]2(O)[C@H]3Cc4ccc(O)c5c4[C@@]2(CCN3CC2CC2)[C@H]1O5)c1nccs1`
A) < 38.5 µL/min/mg

* * *

# experimentalSystem: κ opioid receptor (KOR) (Mus musculus, UniProt P33534)
# Construct: expressed in transfected cells; host or cells: CHO (mKOR-CHO), membrane preparation
# experimentNotes: Competitive radioligand binding assay, KOR
The entries below are paired with their reported Ki.
The answer is to be given in nM; state only the numeric part.

INSERT INTO assay_data (compound, experimentalsystem, reported) VALUES
  ('O=C(CCc1cncs1)N[C@@H]1CC[C@@]2(O)[C@H]3Cc4ccc(O)c5c4[C@@]2(CCN3CC2CC2)[C@H]1O5 [Compound 13]', 'κ opioid receptor (KOR) (Mus musculus, UniProt P33534)', 1.2);

Q) Please give the measured Ki for this compound: O=C(Cc1ccns1)N[C@H]1CC[C@@]2(O)[C@H]3Cc4ccc(O)c5c4[C@@]2(CCN3CC2CC2)[C@H]1O5 [Compound 2]
A) 1.49

Q) Please give the measured Ki for this compound: O=C(Cc1ccns1)N[C@@H]1CC[C@@]2(O)[C@H]3Cc4ccc(O)c5c4[C@@]2(CCN3CC2CC2)[C@H]1O5 [Compound 10]
A) 1.14

Q) Please give the measured Ki for this compound: O=C(Cc1cncs1)N[C@H]1CC[C@@]2(O)[C@H]3Cc4ccc(O)c5c4[C@@]2(CCN3CC2CC2)[C@H]1O5 [Compound 4]
A) 2.08

* * *

# experimentalSystem: κ opioid receptor (KOR) (Mus musculus, UniProt P33534)
# Construct: expressed in transfected cells; host or cells: CHO (mKOR-CHO), membrane preparation
# experimentNotes: Competitive radioligand binding assay, KOR
# appliedConditions: ratio of Ki values
testReadout: Selectivity κ/μ
Write the number on its own, no unit after it.

INSERT INTO assay_data (compound, experimentalsystem, reported) VALUES
  ('O=C(CCc1nccs1)N[C@H]1CC[C@@]2(O)[C@H]3Cc4ccc(O)c5c4[C@@]2(CCN3CC2CC2)[C@H]1O5 [Compound 8]', 'κ opioid receptor (KOR) (Mus musculus, UniProt P33534)', 4);

Q) Please give the measured Selectivity κ/μ for this compound: O=C(CCc1nccs1)N[C@@H]1CC[C@@]2(O)[C@H]3Cc4ccc(O)c5c4[C@@]2(CCN3CC2CC2)[C@H]1O5 [Compound 16]
A) 2

Q) Please give the measured Selectivity κ/μ for this compound: O=C(Cc1ccns1)N[C@@H]1CC[C@@]2(O)[C@H]3Cc4ccc(O)c5c4[C@@]2(CCN3CC2CC2)[C@H]1O5 [Compound 10]
A) 2

Q) Please give the measured Selectivity κ/μ for this compound: O=C(Cc1nccs1)N[C@H]1CC[C@@]2(O)[C@H]3Cc4ccc(O)c5c4[C@@]2(CCN3CC2CC2)[C@H]1O5 [Compound 7]
A) 3

* * *

The entries below are paired with their reported pKi.
# experimentalSystem: κ opioid receptor (KOR) (Mus musculus, UniProt P33534)
Keep it numeric: pKi is minus log10 of the concentration in mol/L.

Answered examples (3):
INSERT INTO results (compound, experimentalsystem, testreadout, reported) VALUES
  ('O=C(Cc1nccs1)N[C@@H]1CC[C@@]2(O)[C@H]3Cc4ccc(O)c5c4[C@@]2(CCN3CC2CC2)[C@H]1O5 [Compound 15]', 'κ opioid receptor (KOR) (Mus musculus, UniProt P33534)', 'pKi', 8.72),
  ('O=C(N[C@H]1CC[C@@]2(O)[C@H]3Cc4ccc(O)c5c4[C@@]2(CCN3CC2CC2)[C@H]1O5)c1cncs1 [Compound 3]', 'κ opioid receptor (KOR) (Mus musculus, UniProt P33534)', 'pKi', 9.01),
  ('O=C(N[C@@H]1CC[C@@]2(O)[C@H]3Cc4ccc(O)c5c4[C@@]2(CCN3CC2CC2)[C@H]1O5)c1ccns1 [Compound 9]', 'κ opioid receptor (KOR) (Mus musculus, UniProt P33534)', 'pKi', 8.91);

Q) Which measured pKi belongs to O=C(Cc1nccs1)N[C@H]1CC[C@@]2(O)[C@H]3Cc4ccc(O)c5c4[C@@]2(CCN3CC2CC2)[C@H]1O5 [Compound 7] , tested on κ opioid receptor (KOR) (Mus musculus, UniProt P33534)?
A) 8.65

Q) Which measured pKi belongs to O=C(CCc1cncs1)N[C@H]1CC[C@@]2(O)[C@H]3Cc4ccc(O)c5c4[C@@]2(CCN3CC2CC2)[C@H]1O5 [Compound 5] , tested on κ opioid receptor (KOR) (Mus musculus, UniProt P33534)?
A) 8.69
